- target_desc: rat TREK-1 (Rattus norvegicus)
- Sequence (Q920B6 whole entry): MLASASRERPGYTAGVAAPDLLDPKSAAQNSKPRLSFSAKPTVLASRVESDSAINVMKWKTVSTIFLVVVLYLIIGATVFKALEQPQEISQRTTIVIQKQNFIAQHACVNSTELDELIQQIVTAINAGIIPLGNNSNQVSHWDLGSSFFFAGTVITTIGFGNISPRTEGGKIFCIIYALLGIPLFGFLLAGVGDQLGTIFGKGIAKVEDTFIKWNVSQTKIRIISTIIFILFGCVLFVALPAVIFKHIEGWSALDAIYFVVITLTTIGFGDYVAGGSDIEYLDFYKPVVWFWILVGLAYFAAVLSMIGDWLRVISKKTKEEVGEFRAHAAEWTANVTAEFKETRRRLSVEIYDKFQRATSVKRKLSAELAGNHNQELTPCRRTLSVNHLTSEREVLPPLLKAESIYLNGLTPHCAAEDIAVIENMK
- assay_info: rat TREK-1 manual patch clamp
- Type: cell-based
- assay_setup: read-out: TREK-1 IC50 (rat, MPC)
endpoint_name: IC50 (nM)

• CC(=O)N1CCC(n2ncc(Cl)c2C(=O)Nc2ncc(C#Cc3ccccc3)cc2C)CC1 [Compound 10] = 88
• CC(=O)N1CC[C@@H](n2ncc(Cl)c2C(=O)Nc2ncc(C#Cc3ccc(F)cc3)cc2C)[C@H](F)C1 [Compound 11] = 200

* * *

- target_desc: Nav1.5 (Homo sapiens, UniProt Q14524)
- Sequence (Q14524 whole entry): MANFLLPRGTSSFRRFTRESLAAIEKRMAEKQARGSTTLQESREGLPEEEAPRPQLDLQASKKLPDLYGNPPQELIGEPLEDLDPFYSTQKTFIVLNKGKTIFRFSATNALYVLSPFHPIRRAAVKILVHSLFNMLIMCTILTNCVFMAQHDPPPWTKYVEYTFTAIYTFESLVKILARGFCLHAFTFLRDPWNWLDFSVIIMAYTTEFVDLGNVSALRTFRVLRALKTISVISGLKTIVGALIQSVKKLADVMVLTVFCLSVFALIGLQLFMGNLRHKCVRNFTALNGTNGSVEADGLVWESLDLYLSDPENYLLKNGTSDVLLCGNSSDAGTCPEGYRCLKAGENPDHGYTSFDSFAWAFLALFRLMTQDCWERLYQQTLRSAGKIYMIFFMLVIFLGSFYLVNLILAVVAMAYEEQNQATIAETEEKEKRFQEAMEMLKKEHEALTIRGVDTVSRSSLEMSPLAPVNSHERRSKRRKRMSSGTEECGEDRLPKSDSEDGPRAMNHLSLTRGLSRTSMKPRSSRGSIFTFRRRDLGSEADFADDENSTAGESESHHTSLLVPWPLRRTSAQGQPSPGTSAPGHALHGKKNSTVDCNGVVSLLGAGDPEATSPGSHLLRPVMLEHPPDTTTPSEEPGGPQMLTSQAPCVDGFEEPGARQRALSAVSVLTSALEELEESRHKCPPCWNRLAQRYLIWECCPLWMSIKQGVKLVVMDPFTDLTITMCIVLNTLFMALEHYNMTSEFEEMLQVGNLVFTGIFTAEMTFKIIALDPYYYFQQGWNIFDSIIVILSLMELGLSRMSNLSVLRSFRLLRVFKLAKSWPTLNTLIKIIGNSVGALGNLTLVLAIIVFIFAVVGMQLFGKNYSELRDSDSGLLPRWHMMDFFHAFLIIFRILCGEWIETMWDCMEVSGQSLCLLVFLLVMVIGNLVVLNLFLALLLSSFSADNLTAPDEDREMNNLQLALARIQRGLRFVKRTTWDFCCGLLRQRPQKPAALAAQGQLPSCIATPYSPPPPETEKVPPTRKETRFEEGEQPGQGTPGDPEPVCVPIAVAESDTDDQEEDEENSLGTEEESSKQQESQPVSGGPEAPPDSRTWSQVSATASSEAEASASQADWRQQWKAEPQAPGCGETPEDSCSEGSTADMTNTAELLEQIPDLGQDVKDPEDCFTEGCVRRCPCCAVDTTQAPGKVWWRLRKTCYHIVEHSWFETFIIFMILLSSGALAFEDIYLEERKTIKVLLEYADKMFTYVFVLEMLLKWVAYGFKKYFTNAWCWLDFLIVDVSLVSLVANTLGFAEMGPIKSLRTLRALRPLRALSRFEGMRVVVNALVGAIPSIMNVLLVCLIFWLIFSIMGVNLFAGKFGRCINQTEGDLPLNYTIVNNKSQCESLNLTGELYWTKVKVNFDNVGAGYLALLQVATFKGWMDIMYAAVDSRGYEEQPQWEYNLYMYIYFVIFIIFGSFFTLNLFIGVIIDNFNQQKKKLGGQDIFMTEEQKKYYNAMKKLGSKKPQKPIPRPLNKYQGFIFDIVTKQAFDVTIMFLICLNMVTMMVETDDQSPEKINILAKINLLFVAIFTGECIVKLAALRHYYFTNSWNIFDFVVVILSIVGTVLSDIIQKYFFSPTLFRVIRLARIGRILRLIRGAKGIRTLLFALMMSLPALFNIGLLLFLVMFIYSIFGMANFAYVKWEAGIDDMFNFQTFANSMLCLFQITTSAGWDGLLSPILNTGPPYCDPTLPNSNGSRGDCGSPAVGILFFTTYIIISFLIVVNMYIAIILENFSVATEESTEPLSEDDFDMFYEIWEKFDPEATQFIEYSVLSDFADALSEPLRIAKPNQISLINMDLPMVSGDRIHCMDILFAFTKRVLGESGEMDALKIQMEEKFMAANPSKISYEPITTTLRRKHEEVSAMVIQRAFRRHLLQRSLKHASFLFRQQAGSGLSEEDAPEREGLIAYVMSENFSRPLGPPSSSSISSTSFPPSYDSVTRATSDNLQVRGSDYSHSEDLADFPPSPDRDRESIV
- assay_info: MPC ion channel panel, Nav1.5
- Format: cell-based
endpoint_name: inhibition at 10 µM

• CC(=O)N1CCC(n2ncc(Cl)c2C(=O)Nc2ncc(C#Cc3ccccc3)cc2C)CC1 = ≤ 50%
• CC(=O)N1CC[C@@H](n2ncc(Cl)c2C(=O)Nc2ncc(C#Cc3ccc(F)cc3)cc2C)[C@H](F)C1 = ≤ 50%

* * *

- target_desc: UniProt:Q13936
- assay_info: MPC ion channel panel, Cav1.2
- Assay type: cell-based
endpoint_name: inhibition at 10 µM

* CC(=O)N1CCC(n2ncc(Cl)c2C(=O)Nc2ncc(C#Cc3ccccc3)cc2C)CC1 | ≤ 50%
* CC(=O)N1CC[C@@H](n2ncc(Cl)c2C(=O)Nc2ncc(C#Cc3ccc(F)cc3)cc2C)[C@H](F)C1 | ≤ 50%

* * *

- target_desc: human TREK-1 (hTREK-1) (Homo sapiens)
- Sequence (O95069 1-426): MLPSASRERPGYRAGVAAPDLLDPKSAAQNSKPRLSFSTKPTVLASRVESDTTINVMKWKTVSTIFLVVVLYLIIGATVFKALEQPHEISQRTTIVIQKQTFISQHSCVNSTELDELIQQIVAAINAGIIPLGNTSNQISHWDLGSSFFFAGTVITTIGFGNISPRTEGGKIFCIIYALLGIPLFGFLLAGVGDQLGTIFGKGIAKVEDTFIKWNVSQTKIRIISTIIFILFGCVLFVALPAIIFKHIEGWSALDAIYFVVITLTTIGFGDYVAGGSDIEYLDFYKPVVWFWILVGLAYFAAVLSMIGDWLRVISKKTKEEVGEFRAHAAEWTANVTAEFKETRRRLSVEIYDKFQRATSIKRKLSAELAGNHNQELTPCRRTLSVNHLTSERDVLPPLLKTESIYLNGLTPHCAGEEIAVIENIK
- assay_info: TREK-1 thallium flux assay (CHO-K1 cells stably expressing hTREK-1)
- assay_setup: human TREK-1, thallium flux; read-out: h TREK-1 Tl+ IC50
endpoint_name: IC50 (nM)

- Cc1cc(C#Cc2ccccc2)cnc1NC(=O)c1cc(C(=O)N2CC(F)(F)C2)ccc1Cl [Compound 13a]: 320
- CC(=O)N1CCC(n2ncc(Cl)c2C(=O)Nc2ncc(C#Cc3ccccc3)cc2C)C(F)C1 (centres unmarked) [Compound 16a]: 98
- Cc1cc(C#Cc2ccccc2)cnc1NC(=O)c1cc(NC(=O)OC(C)(C)C)ccc1Cl [Compound 13e]: 140
- Cc1cc(C#Cc2ccccc2)cnc1NC(=O)c1c(Cl)cnn1-c1ccc2c(cnn2C)c1 [Compound 15c]: 84
- Cc1cc(C#Cc2ccccc2)cnc1NC(=O)c1c(Cl)cnn1[C@H]1CCOC1 [Compound 15a]: 360
- Cc1cc(C#Cc2ccccc2)cnc1NC(=O)c1c(Cl)cnn1CC1CCOCC1 [Compound 14b]: 200
- CC(=O)N1CC[C@@H](n2ncc(Cl)c2C(=O)Nc2ncc(C#Cc3ccccc3)cc2C)[C@@H](F)C1 [Compound 16c]: 160
- Cc1cc(C#Cc2ccccc2)cnc1NC(=O)c1cc(-c2noc(C3CCOC3)n2)ccc1Cl (centres unmarked) [Compound 13b]: 48

* * *

- assay_info: Rat in vivo PK (plasma clearance) in SAR tables
- assay_setup: read-out: Rat CLp
Lab note: anything with clearance below 20 mL/min/kg is marked rule met; values at 20 mL/min/kg or higher are marked rule not met.

• Cc1cc(C#Cc2ccccc2)cnc1NC(=O)c1cc(OCC2COCCO2)ccc1Cl (stereo not drawn) [Compound 13c] = rule met
• CC(=O)N1CCC(n2ncc(Cl)c2C(=O)Nc2ncc(C#Cc3ccccc3)cc2C)CC1 = rule not met
• Cc1cc(C#Cc2ccccc2)cnc1NC(=O)c1cc(OC[C@@H]2COCCO2)ccc1Cl = rule met
• Cc1cc(C#Cc2ccccc2)cnc1NC(=O)c1c(Cl)cnn1[C@H]1CCOC1 [Compound 15a] = rule met
• Cc1cc(C#Cc2ccccc2)cnc1NC(=O)c1cc(C(=O)N2CC(F)(F)C2)ccc1Cl [Compound 13a] = rule not met
• CC(=O)N[C@H]1CC[C@@H](n2ncc(Cl)c2C(=O)Nc2ncc(C#Cc3ccccc3)cc2C)CC1 [Compound 15f] = rule not met

* * *

# half-life per entry
- assay_info: IV/PO pharmacokinetic study, NHP (cyno)
- Type: in vivo
- assay_setup: cynomolgus monkey, plasma, iv 1 mg/kg, read-out: elimination t1/2 (converted)
endpoint_name: half-life (h)

- CC(=O)N1CCC(n2ncc(Cl)c2C(=O)Nc2ncc(C#Cc3ccccc3)cc2C)CC1 [Compound 10]: 3.3
- CC(=O)N1CC[C@@H](n2ncc(Cl)c2C(=O)Nc2ncc(C#Cc3ccc(F)cc3)cc2C)[C@H](F)C1 [Compound 11]: 9.3

* * *

- target_desc: human TREK-1 (hTREK-1) (Homo sapiens, UniProt O95069)
- Sequence (O95069 1-426): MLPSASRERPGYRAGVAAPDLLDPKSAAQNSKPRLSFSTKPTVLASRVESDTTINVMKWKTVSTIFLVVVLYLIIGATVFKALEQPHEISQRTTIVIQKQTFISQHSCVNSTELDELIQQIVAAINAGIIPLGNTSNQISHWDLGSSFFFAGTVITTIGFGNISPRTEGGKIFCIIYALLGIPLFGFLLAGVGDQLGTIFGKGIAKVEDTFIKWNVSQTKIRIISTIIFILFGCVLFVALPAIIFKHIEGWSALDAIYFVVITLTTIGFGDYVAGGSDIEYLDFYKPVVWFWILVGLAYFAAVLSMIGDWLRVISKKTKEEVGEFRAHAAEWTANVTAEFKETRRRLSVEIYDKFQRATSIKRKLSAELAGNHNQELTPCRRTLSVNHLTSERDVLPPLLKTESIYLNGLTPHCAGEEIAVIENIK
- assay_info: TREK-1 thallium flux assay (CHO-K1 cells stably expressing hTREK-1)
- assay_setup: human TREK-1, thallium flux; read-out: h TREK-1 Tl+ IC50
endpoint_name: IC50 (nM)

• CC(=O)N[C@H]1CC[C@@H](n2ncc(Cl)c2C(=O)Nc2ncc(C#Cc3ccccc3)cc2C)CC1 [Compound 15f] = 130
• Cc1cc(C#Cc2ccccc2)cnc1NC(=O)c1cc(OC[C@H]2COCCO2)ccc1Cl [Compound 13d] = 110
• Cc1cc(C#Cc2ccccc2)cnc1NC(=O)c1cc(OCC2COCCO2)ccc1Cl (centres unmarked) [Compound 13c] = 130
• CC(=O)N1CC[C@@H](n2ncc(Cl)c2C(=O)Nc2ncc(C#Cc3ccccc3)cc2C)[C@H](F)C1 [Compound 16b] = 96
• Cc1cc(C#Cc2ccccc2)cnc1NC(=O)c1cc(OC[C@@H]2COCCO2)ccc1Cl [Compound 7] = 210
• CC(=O)N1CC[C@@H](n2ncc(Cl)c2C(=O)Nc2ncc(C#Cc3ccc(F)cc3)cc2C)[C@H](F)C1 [Compound 11] = 110
• Cc1cc(C#Cc2ccccc2)cnc1NC(=O)c1c(Cl)cnn1CC1COCCO1 (centres unmarked) [Compound 8] = 670
• CC(=O)N1CC[C@H](n2ncc(Cl)c2C(=O)Nc2ncc(C#Cc3ccccc3)cc2F)[C@H](F)C1 [Compound 16e] = 70

* * *

- assay_info: IV/PO pharmacokinetic study, dog (beagle)
- Assay type: in vivo
- assay_setup: beagle, dog, plasma, iv, iv 1 mg/kg (10), 0.5 mg/kg (11), read-out: CLp
endpoint_name: clearance

* CC(=O)N1CC[C@@H](n2ncc(Cl)c2C(=O)Nc2ncc(C#Cc3ccc(F)cc3)cc2C)[C@H](F)C1 | < 0.12 L/h/kg
* CC(=O)N1CCC(n2ncc(Cl)c2C(=O)Nc2ncc(C#Cc3ccccc3)cc2C)CC1 | < 0.12 L/h/kg

* * *

- target_desc: hTREK-1 (Homo sapiens)
- assay_info: hTREK-1 manual patch clamp assay
- assay_setup: human TREK-1, manual patch clamp; read-out: TREK-1 IC50 (human, MPC)
endpoint_name: IC50

* CC(=O)N1CC[C@@H](n2ncc(Cl)c2C(=O)Nc2ncc(C#Cc3ccc(F)cc3)cc2C)[C@H](F)C1 [Compound 11] | 0.064 µM
* Cc1cc(C#Cc2ccccc2)cnc1NC(=O)c1cc(OC[C@@H]2COCCO2)ccc1Cl [Compound 7] | 0.079 µM
* CC(=O)N1CCC(n2ncc(Cl)c2C(=O)Nc2ncc(C#Cc3ccccc3)cc2C)CC1 [Compound 10] | 0.063 µM
* Cc1cc(C#Cc2ccccc2)cnc1NC(=O)c1cc(OC[C@H]2COCCO2)ccc1Cl [Compound 13d] | 0.011 µM

Origin of the recorded values: paper PMC12621189
